# Test system: HT-29
# Procedure text: Antiproliferative activity against human HT-29 cells after 72 hrs by cell titer 96 assay
# Format: functional, cell-based
# Study conditions: HT-29, 72 h
pIC50: −log10 of the molar value.
Listed next: entries and their corresponding pIC50.

Solved entries (count: 7):
CCOC(=O)CCc1c(/C=C2\C(=O)Nc3ccc(NS(=O)(=O)c4ccccc4)cc32)[nH]c2c1C(=O)CCC2 = 5.49
O=C1Nc2ccc(NS(=O)(=O)c3ccccc3)cc2/C1=C/c1[nH]c2c(c1CCC(=O)N1CCCC1)C(=O)CCC2 = < 5.00
O=C1Nc2ccc(S(=O)(=O)N3CCc4ccccc43)cc2/C1=C/c1[nH]c2c(c1CCC(=O)N1CCOCC1)C(=O)CCC2 = < 5.00
CCN(CC)CCCc1c(/C=C2\C(=O)Nc3ccc(NS(=O)(=O)c4ccccc4)cc32)[nH]c2c1C(=O)CCC2 = < 5.00
CNC(=O)CCc1c(/C=C2\C(=O)Nc3ccc(NS(=O)(=O)c4ccccc4)cc32)[nH]c2c1C(=O)CCC2 = < 5.00
CN(C)CCCc1c(/C=C2\C(=O)Nc3ccc(NS(=O)(=O)c4ccccc4)cc32)[nH]c2c1C(=O)CCC2 = 5.53
CN(C)CCCc1c(/C=C2\C(=O)Nc3ccc(S(=O)(=O)N4CCc5ccccc54)cc32)[nH]c2c1C(=O)CCC2 = 6.12

Note: attention shifts to another entry.
Fill in: pIC50 of "O=C1Nc2ccc(NS(=O)(=O)c3ccccc3)cc2/C1=C/c1[nH]c2c(c1CCC(=O)N1CCOCC1)C(=O)CCC2" is ___ < 5.00

* * *

# Test system: Aurora kinase B (Homo sapiens)
# Procedure text: Inhibition of recombinant aurora B at 1 uM
Quantity: inhibition (%)

1. C=CCS(=O)(=O)c1ccc2c(c1)/C(=C/c1[nH]c3c(c1CCC(=O)O)C(=O)CCC3)C(=O)N2
2. CCOC(=O)CCc1c(/C=C2\C(=O)Nc3ccc(F)cc32)[nH]c2c1C(=O)CCC2
3. O=C(O)CCc1c(/C=C2\C(=O)Nc3ccc(F)cc32)[nH]c2c1C(=O)CCCC2
4. CCS(=O)(=O)c1ccc2c(c1)/C(=C/c1[nH]c3c(c1CCC(=O)O)C(=O)CCC3)C(=O)N2
Rank the items in ascending order with respect to inhibition. Reply format: the labels, ordered as requested. 3, 2, 4, 1
(3: 2%, 2: 3%, 4: 7%, 1: 32.5%)

* * *

# System: HT-29
# Procedure text: Antiproliferative activity against human HT-29 cells after 72 hrs by cell titer 96 assay
# Format: functional, cell-based
# Study conditions: HT-29, 72 h
pIC50: −log10 of the molar value.
Quantity: pIC50

CCN(CC)CCCc1c(/C=C2\C(=O)Nc3ccc(S(=O)(=O)N4CCc5ccccc54)cc32)[nH]c2c1C(=O)CCC2 = 5.67
O=C1Nc2ccc(NS(=O)(=O)c3ccccc3)cc2/C1=C/c1[nH]c2c(c1CCCN1CCCC1)C(=O)CCC2 = 5.48

* * *

# Test system: Aurora kinase B (Homo sapiens, UniProt Q96GD4)
# Sequence (Q96GD4 whole entry): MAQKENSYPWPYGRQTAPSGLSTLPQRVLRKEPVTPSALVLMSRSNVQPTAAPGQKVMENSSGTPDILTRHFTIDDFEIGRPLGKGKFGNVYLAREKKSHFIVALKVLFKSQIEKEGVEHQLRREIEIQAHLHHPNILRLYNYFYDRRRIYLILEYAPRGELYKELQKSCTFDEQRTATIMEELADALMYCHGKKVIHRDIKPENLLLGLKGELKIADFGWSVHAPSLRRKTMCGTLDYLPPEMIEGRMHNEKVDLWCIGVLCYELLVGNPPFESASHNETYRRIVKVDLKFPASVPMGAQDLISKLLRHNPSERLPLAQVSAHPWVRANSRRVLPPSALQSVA
# Procedure text: Inhibition of recombinant aurora B at 1 uM
Quantity: inhibition (%)

O=C(O)CCc1c(/C=C2\C(=O)Nc3ccc(NS(=O)(=O)c4ccc5ccccc5c4)cc32)[nH]c2c1C(=O)CCC2 = 21
CC(=O)c1c(C)[nH]c(/C=C2\C(=O)Nc3ccc(F)cc32)c1CCC(=O)O = 17.5
CCS(=O)(=O)Nc1ccc2c(c1)/C(=C/c1[nH]c3c(c1CCC(=O)O)C(=O)CCC3)C(=O)N2 = 7.3
O=C(O)CCc1c(/C=C2\C(=O)Nc3ccccc32)[nH]c2c1C(=O)CCC2 = 13
O=C(O)CCc1c(/C=C2\C(=O)Nc3ccc(NC(=O)c4ccccc4)cc32)[nH]c2c1C(=O)CCC2 = 14.2

1. COc1cc(-c2ccc3c(c2)/C(=C/c2[nH]c4c(c2CCC(=O)O)C(=O)CCC4)C(=O)N3)ccc1O
2. NS(=O)(=O)c1ccc2c(c1)/C(=C/c1[nH]c3c(c1CCC(=O)O)C(=O)CCC3)C(=O)N2
Param metric = inhibition; output whichever of 1 , 2 has the minimum value. Field: selected label. Fill in the label of the entry you choose. 1
(1: 12.4%, 2: 34.1%)
